# credit: patent US11548870B2

# systemName: Ikaros (Homo sapiens, UniProt Q13422)
# Construct: fluorescently labelled antibodies against Helios and Ikaros; endogenous in cells; host or cells: Jurkat cells
# Sequence (Q96SW2 whole entry partner): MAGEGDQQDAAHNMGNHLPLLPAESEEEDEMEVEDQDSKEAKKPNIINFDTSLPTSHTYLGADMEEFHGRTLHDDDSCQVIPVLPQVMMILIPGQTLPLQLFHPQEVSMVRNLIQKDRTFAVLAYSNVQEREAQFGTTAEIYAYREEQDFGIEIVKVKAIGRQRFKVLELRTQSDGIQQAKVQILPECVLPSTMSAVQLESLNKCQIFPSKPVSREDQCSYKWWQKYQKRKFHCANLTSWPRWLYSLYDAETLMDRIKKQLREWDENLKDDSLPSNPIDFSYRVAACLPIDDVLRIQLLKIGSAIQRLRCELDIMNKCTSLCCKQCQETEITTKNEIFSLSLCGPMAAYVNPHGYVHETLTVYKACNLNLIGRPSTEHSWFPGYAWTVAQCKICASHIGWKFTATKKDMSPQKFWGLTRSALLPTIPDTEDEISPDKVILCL
# Sequence (Q16531 whole entry partner): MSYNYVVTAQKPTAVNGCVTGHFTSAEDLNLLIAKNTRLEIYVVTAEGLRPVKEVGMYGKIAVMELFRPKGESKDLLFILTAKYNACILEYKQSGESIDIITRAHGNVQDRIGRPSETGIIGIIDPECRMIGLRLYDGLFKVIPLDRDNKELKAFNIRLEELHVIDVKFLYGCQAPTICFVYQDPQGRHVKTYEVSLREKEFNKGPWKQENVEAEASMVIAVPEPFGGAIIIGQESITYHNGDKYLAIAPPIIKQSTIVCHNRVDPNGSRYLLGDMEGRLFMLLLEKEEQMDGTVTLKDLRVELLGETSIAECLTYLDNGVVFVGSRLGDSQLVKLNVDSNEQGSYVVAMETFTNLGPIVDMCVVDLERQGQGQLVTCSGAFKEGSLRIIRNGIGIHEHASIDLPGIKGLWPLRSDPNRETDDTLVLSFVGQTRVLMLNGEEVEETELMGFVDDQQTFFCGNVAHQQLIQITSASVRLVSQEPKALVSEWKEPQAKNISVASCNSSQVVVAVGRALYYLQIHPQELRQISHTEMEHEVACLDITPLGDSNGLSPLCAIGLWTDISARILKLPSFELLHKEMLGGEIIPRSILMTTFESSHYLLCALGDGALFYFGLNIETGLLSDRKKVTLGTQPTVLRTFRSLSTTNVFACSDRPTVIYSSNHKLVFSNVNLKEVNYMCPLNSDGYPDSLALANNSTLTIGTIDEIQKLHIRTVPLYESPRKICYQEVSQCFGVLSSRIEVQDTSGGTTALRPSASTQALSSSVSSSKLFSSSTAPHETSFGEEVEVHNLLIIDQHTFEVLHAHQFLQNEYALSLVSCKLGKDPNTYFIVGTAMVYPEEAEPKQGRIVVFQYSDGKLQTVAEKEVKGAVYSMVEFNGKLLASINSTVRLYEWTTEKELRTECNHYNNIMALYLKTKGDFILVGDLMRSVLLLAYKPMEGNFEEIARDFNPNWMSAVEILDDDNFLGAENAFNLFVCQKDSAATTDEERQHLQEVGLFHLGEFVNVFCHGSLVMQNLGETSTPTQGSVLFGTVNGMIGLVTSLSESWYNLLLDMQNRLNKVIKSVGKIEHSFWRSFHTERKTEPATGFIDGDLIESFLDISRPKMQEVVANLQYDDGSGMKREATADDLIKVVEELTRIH
# Sequence (Q13422 whole entry): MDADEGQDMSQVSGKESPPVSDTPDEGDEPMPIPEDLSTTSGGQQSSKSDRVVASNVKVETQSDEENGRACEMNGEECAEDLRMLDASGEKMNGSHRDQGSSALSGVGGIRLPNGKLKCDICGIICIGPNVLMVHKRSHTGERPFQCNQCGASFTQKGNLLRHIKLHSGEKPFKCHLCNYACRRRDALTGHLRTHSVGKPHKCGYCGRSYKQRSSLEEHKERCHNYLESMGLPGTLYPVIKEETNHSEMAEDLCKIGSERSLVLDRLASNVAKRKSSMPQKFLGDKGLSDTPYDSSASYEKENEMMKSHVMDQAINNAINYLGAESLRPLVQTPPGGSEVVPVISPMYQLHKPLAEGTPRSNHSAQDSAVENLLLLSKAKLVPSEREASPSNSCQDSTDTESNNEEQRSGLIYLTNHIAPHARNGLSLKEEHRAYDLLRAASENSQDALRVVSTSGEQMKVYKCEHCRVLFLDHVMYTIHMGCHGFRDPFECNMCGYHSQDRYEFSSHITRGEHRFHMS
# testMethodNotes: Helios Cellular Degradation Assay, Ikaros readout (flow cytometry, Ikaros-Alexa488 antibody staining, 72 h)
# Assay type: cell-based
# protocolConditions: Jurkat cells, 72 h incubation, flow cytometry
# Protocol: Helios Cellular Degradation Assay Jurkat cells were plated at 80,000 cells/well in 40 μL RPMI+10% FBS in a 384 well cell culture plate prior to using acoustic dispensing technology for adding compound of interest. Cell cultures were incubated for 72 h at 37° C. and 5% CO2. […] Stained cells were resuspended in 25 μL of flow cytometry staining buffer (PBS+0.2% BSA) and analyzed using an Intellicyt Ique Plus flow cytometer. […]
assayEndpoint: Ikaros Dmax (%)
Answers are plain numbers, in %.

Some entries whose results are on file:
CCN(C)Cc1ccnc(-c2ccc3c(c2)CN(C2CCC(=O)NC2=O)C3=O)c1 (stereo not drawn) [Example 6]
6
CN1CCC(N(C)Cc2ccnc(-c3ccc4c(c3)CN(C3CCC(=O)NC3=O)C4=O)c2)C1 (stereo not drawn)
3
O=C1CCC(N2Cc3cc(-c4cc(CN5CCN(Cc6ccccc6)CC5)ccn4)ccc3C2=O)C(=O)N1 (stereo not drawn)
14
NC(=O)CNCc1ccnc(-c2ccc3c(c2)CN(C2CCC(=O)NC2=O)C3=O)c1 (stereo not drawn)
6
CCN(C)Cc1ccnc(-c2ccc3c(c2)CN(C2CCC(=O)NC2=O)C3=O)c1 (stereo not drawn) [Example 5]
5

Ikaros Dmax on Ikaros (Homo sapiens, UniProt Q13422) for CC1CC(NCc2ccnc(-c3ccc4c(c3)CN(C3CCC(=O)NC3=O)C4=O)c2)CCO1 (stereo not drawn) is 12

* * *

# systemName: Helios (Homo sapiens, UniProt Q96SW2+Q9UKS7)
# Construct: fluorescently labelled antibodies against Helios and Ikaros; endogenous in cells; host or cells: Jurkat cells
# Sequence (Q9UKS7 whole entry, one chain of several): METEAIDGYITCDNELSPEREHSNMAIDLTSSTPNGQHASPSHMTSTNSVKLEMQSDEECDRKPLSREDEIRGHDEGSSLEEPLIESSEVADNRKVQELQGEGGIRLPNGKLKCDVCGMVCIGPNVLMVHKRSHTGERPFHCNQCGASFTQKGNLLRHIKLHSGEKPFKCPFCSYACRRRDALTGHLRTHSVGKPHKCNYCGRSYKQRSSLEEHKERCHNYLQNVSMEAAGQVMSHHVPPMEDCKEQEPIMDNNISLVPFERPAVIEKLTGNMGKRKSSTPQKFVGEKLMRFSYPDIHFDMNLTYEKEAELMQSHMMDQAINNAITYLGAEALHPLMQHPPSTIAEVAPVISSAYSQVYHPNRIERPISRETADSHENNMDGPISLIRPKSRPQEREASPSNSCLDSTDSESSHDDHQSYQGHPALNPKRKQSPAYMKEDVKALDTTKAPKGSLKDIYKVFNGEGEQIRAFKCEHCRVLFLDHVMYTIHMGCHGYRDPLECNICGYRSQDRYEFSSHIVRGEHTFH
# testMethodNotes: Helios Cellular Degradation Assay (flow cytometry, Helios-PE antibody staining, 72 h)
# Format: cell-based
# protocolConditions: Jurkat, Jurkat cells, 72 h incubation, flow cytometry; read-out: Helios Dmax
# Procedure: Helios Cellular Degradation Assay Jurkat cells were plated at 80,000 cells/well in 40 μL RPMI+10% FBS in a 384 well cell culture plate prior to using acoustic dispensing technology for adding compound of interest. Cell cultures were incubated for 72 h at 37° C. and 5% CO2. […] Stained cells were resuspended in 25 μL of flow cytometry staining buffer (PBS+0.2% BSA) and analyzed using an Intellicyt Ique Plus flow cytometer. […]
For each entry below, report its Dmax value.
Give bare numbers, in %.

CCN(C)Cc1ccnc(-c2ccc3c(c2)CN(C2CCC(=O)NC2=O)C3=O)c1 (centres unmarked)
84
C[C@H]1CCN(Cc2ccnc(-c3ccc4c(c3)CN(C3CCC(=O)NC3=O)C4=O)c2)C1 (some centres unmarked)
90

// input: 3 compounds below; output: Dmax for each
1. CCCNCc1ccnc(-c2ccc3c(c2)CN(C2CCC(=O)NC2=O)C3=O)c1 (centres unmarked)
2. O=C1CCC(N2Cc3cc(-c4cc(CNCC5CCO5)ccn4)ccc3C2=O)C(=O)N1 (centres unmarked)
3. O=C1CCC(N2Cc3cc(-c4cc(CN5CCC(N6CCCC6)CC5)ccn4)ccc3C2=O)C(=O)N1 (centres unmarked)

**Result**
[80, 74, 22]

* * *

# systemName: Helios (Homo sapiens, UniProt Q96SW2+Q9UKS7)
# Construct: fluorescently labelled antibodies against Helios and Ikaros; endogenous in cells; host or cells: Jurkat cells
# testMethodNotes: Helios Cellular Degradation Assay (flow cytometry, Helios-PE antibody staining, 72 h)
# Assay type: cell-based
# protocolConditions: Jurkat cells, 72 h incubation, flow cytometry
Hi! Just check whether DC50 is below 100 nM. Below gives label 1, equal or above gives label 0.

Illustrative cases are given below, each with its answer.
CN(C)[C@H]1CCN(Cc2ccnc(-c3ccc4c(c3)CN(C3CCC(=O)NC3=O)C4=O)c2)C1 (stereo partly shown) [Example 33]
label 0
C[C@@H]1CCC[C@H](C)N1Cc1ccnc(-c2ccc3c(c2)CN(C2CCC(=O)NC2=O)C3=O)c1 (stereo partly shown) [Example 120]
label 1
O=C1CCC(N2Cc3cc(-c4cc(CN5CC(c6cccnc6)C5)ccn4)ccc3C2=O)C(=O)N1 (stereo not shown) [Example 203]
label 0
O=C1CCC(N2Cc3cc(-c4cc(CN5CCN(Cc6ccc7c(c6)OCO7)CC5)ccn4)ccc3C2=O)C(=O)N1 (stereo not shown) [Example 12]
label 0
CN(Cc1ccnc(-c2ccc3c(c2)CN(C2CCC(=O)NC2=O)C3=O)c1)C(C)(C)c1ccccc1 (stereo not shown) [Example 142]
label 1
CN(Cc1cccc(OC(F)(F)F)c1)Cc1ccnc(-c2ccc3c(c2)CN(C2CCC(=O)NC2=O)C3=O)c1 (stereo not shown) [Example 156]
label 0

Let us examine a further case.
**Query** Hi there! Is DC50 for Cc1ccc(C2CCN(Cc3ccnc(-c4ccc5c(c4)CN(C4CCC(=O)NC4=O)C5=O)c3)CC2)cc1 (stereo not shown) [Example 199] below 100 nM, do you know?
**Result** label 0

* * *

Provide the reported DC50 of each item.
# systemName: Helios (Homo sapiens, UniProt Q96SW2+Q9UKS7)
# Construct: fluorescently labelled antibodies against Helios and Ikaros; endogenous in cells; host or cells: Jurkat cells
# testMethodNotes: Helios Cellular Degradation Assay (flow cytometry, Helios-PE antibody staining, 72 h)
# Assay type: cell-based
# protocolConditions: Jurkat cells, 72 h incubation, flow cytometry
Numbers only, in nM.

Consider the worked cases shown below.
O=C1CCC(N2Cc3cc(-c4cc(CN5CCC6(CC5)CC6)ccn4)ccc3C2=O)C(=O)N1 (stereo not drawn) [Example 127]
35
O=C1CCC(N2Cc3cc(-c4cc(CNCCCCO)ccn4)ccc3C2=O)C(=O)N1 (stereo not drawn) [Example 128]
93
CC1CC(NCc2ccnc(-c3ccc4c(c3)CN(C3CCC(=O)NC3=O)C4=O)c2)CCO1 (stereo not drawn) [Example 80]
35

I have 6 compounds here; please give me DC50 for each one.
1. O=C1CCC(N2Cc3cc(-c4cc(CNCc5csc(-c6ccccc6)n5)ccn4)ccc3C2=O)C(=O)N1 (stereo not drawn) [Example 110]
2. CN1CCC(N(C)Cc2ccnc(-c3ccc4c(c3)CN(C3CCC(=O)NC3=O)C4=O)c2)C1 (stereo not drawn) [Example 29]
3. CC1(c2ccc(N)cc2)CCN(Cc2ccnc(-c3ccc4c(c3)CN(C3CCC(=O)NC3=O)C4=O)c2)CC1 (stereo not drawn) [Example 121]
4. C[C@@H]1CCCN(Cc2ccnc(-c3ccc4c(c3)CN(C3CCC(=O)NC3=O)C4=O)c2)C1 (stereo partly drawn) [Example 75]
5. CN(CCc1ccccc1)Cc1ccnc(-c2ccc3c(c2)CN(C2CCC(=O)NC2=O)C3=O)c1 (stereo not drawn) [Example 171]
6. C[C@H]1CCCN1Cc1ccnc(-c2ccc3c(c2)CN(C2CCC(=O)NC2=O)C3=O)c1 (stereo partly drawn) [Example 69]

**Result**
[48, 7510, 24, 14, 317, 783]

List the reported DC50 of each compound below.
1. C[C@H](NCc1ccnc(-c2ccc3c(c2)CN(C2CCC(=O)NC2=O)C3=O)c1)c1ccccc1 (stereo partly drawn) [Example 123]
2. C[C@H]1CCCCN1Cc1ccnc(-c2ccc3c(c2)CN(C2CCC(=O)NC2=O)C3=O)c1 (stereo partly drawn) [Example 74]
3. CC(NCc1ccnc(-c2ccc3c(c2)CN(C2CCC(=O)NC2=O)C3=O)c1)c1ccccc1 (stereo not drawn) [Example 55]

**Result**
7
2500
9

* * *

Assignment: determine reported DC50 for the given molecules.
# systemName: Helios (Homo sapiens, UniProt Q96SW2+Q9UKS7)
# Construct: fluorescently labelled antibodies against Helios and Ikaros; endogenous in cells; host or cells: Jurkat cells
# testMethodNotes: Helios Cellular Degradation Assay (flow cytometry, Helios-PE antibody staining, 72 h)
# Format: cell-based
# protocolConditions: Jurkat cells, 72 h incubation, flow cytometry
Answers are plain numbers, in nM.

CCN(CC)C(=O)C1CCCN(Cc2ccnc(-c3ccc4c(c3)CN(C3CCC(=O)NC3=O)C4=O)c2)C1 (centres unmarked) [Example 13]
200
COc1ccc(CN(C)Cc2ccnc(-c3ccc4c(c3)CN(C3CCC(=O)NC3=O)C4=O)c2)cn1 (centres unmarked) [Example 168]
309
COC(=O)c1ccc(CN(C)Cc2ccnc(-c3ccc4c(c3)CN(C3CCC(=O)NC3=O)C4=O)c2)cc1 (centres unmarked) [Example 153]
4710

For each of the items listed, what is its DC50?
1. CN(C)C1CCC(NCc2ccnc(-c3ccc4c(c3)CN(C3CCC(=O)NC3=O)C4=O)c2)CC1 (centres unmarked) [Example 107]
2. O=C1CCC(N2Cc3cc(-c4cc(CNCCCN5CCCC5=O)ccn4)ccc3C2=O)C(=O)N1 (centres unmarked) [Example 115]
3. CC(=O)N[C@H]1CCN(Cc2ccnc(-c3ccc4c(c3)CN(C3CCC(=O)NC3=O)C4=O)c2)C1 (some centres unmarked) [Example 31]

**Result**
494
528
268

Please state, for each entry, its recorded DC50.
1. O=C1CCC(N2Cc3cc(-c4cc(CNC5CC5)ccn4)ccc3C2=O)C(=O)N1 (centres unmarked) [Example 109]
2. CN(Cc1ccnc(-c2ccc3c(c2)CN(C2CCC(=O)NC2=O)C3=O)c1)Cc1nccs1 (centres unmarked) [Example 176]
3. CCCCN(C)Cc1ccnc(-c2ccc3c(c2)CN(C2CCC(=O)NC2=O)C3=O)c1 (centres unmarked) [Example 9]

**Result**
1. 48
2. 1120
3. 167
